target: human ether-à-go-go-related gene (hERG) potassium channel (human, UniProt Q12809); assay: primary screen, population patch clamp on CHO cells stably expressing hERG; higher = less effect of the substance;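 note: peak tail current of the secondary pulse compared with the same well before compound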
Sequence (Q12809 whole entry, looked up): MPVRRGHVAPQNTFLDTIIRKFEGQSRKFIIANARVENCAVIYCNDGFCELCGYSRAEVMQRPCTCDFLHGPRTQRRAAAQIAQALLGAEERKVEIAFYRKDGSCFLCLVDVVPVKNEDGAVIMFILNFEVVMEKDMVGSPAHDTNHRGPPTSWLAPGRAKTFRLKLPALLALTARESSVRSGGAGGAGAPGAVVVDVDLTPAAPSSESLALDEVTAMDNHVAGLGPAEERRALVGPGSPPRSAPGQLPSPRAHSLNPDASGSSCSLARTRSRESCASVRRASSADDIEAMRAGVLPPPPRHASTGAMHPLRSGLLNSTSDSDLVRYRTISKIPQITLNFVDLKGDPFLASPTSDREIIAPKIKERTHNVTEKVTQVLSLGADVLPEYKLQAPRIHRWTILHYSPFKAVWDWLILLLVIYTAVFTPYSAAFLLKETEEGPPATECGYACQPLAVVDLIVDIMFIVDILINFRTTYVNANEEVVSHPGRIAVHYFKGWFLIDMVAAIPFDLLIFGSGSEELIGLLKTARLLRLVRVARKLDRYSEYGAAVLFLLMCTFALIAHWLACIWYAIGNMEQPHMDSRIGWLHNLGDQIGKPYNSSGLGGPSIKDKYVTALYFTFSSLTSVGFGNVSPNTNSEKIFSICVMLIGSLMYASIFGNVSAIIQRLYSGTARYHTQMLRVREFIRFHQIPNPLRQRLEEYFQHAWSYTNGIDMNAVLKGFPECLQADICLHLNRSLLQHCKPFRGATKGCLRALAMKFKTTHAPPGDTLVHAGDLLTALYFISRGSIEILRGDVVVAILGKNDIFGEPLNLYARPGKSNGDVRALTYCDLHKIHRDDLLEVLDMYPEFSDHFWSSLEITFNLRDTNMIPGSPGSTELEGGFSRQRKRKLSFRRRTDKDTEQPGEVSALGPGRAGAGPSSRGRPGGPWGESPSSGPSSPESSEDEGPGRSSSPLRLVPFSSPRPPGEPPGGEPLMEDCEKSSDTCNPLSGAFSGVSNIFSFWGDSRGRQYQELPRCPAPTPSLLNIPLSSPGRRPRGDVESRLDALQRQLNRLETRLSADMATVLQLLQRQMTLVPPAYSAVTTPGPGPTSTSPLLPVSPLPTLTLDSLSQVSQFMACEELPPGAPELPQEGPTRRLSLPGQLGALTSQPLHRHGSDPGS
Among all 310,000 compounds or so, about 14,000 (4.5%) showed an effect of 50% or more. The effect is printed as a negative number. The entries come from a sample that favours strong results as a whole.
Could you label it y if measured hERG current change (%, negative = inhibition) at 10uM is -60% or higher, and n otherwise?

Problem: Is hERG current change (%, negative = inhibition) at 10uM for CCOC(=O)c1c(C)n(C)c2ccc(OCC(O)CN3CCCCCC3)cc12.Cl (stereo not shown) at or above -60%?
Result: y

Problem: Reported hERG current change (%, negative = inhibition) at 10uM at or above -60%? `Cc1ccc(S(=O)(=O)N2CCN(c3ccnc4cc(Cl)ccc34)CC2)cc1C`
Result: y

Problem: For this compound, is measured hERG current change (%, negative = inhibition) at 10uM -60% or higher? `O=C1CC2(CCN(C(=O)c3cccc([N+](=O)[O-])c3)CC2)Oc2ccccc21`
Result: n

Problem: Dear colleague, could you confirm whether `O=C1CC2(CCN(C(=O)c3ccc([N+](=O)[O-])cc3)CC2)Oc2ccccc21` has hERG current change (%, negative = inhibition) at 10uM at or above -60%?
Result: n

Problem: Identify whether the reported hERG current change (%, negative = inhibition) at 10uM of the following compound is -60% or greater: CC(C)c1cc(CNC(=O)C2CCC(=O)N(CCc3ccc(Cl)cc3)C2)on1 (stereo not shown)
Result: n

Problem: Is reported hERG current change (%, negative = inhibition) at 10uM greater than or equal to -60% here: `CCn1cc(C(=O)NCCCN2CCC(C)CC2)c(=O)c2cc(S(=O)(=O)N3CCCC3)ccc21`
Result: y

Problem: Can `O=C1CN(C(=O)c2cccc([N+](=O)[O-])c2)CC(=O)N1` be said to have hERG current change (%, negative = inhibition) at 10uM at or above -60%?
Result: y

Problem: Decide: hERG current change (%, negative = inhibition) at 10uM of `O=S(=O)(c1cccc(Br)c1)N1CCN(c2ccnc3cc(Cl)ccc23)CC1` >= -60%?
Result: y

Problem: Determine whether this compound has hERG current change (%, negative = inhibition) at 10uM no lower than -60%: `O=S(=O)(c1ccccc1OC(F)(F)F)N1CCN(c2ccnc3cc(Cl)ccc23)CC1`
Result: y

Problem: # check: hERG current change (%, negative = inhibition) at 10uM of `Cc1nn2c3ccccc3n(CC(=O)c3cccs3)c2nc1=O` is greater than or equal to -60%
Result: y

Problem: Dear colleague, could you confirm whether `CN1CCCN(S(=O)(=O)c2cccc(C#N)c2)CC1.Cl` has hERG current change (%, negative = inhibition) at 10uM at or above -60%?
Result: y

Problem: Hello, I need to know if `COc1ccc(CNC[C@@H](CCCCN(C)Cc2ccc(OC)cc2)N2C[C@H](c3ccccc3)N(CCc3ccc(Cl)c(Cl)c3)C(=O)C2=O)cc1` has measured hERG current change (%, negative = inhibition) at 10uM not below -60%. Thanks!
Result: n
